Data origin, for the record: the supplement of paper PMC12764529

Assay: folding stability dG unfold from chymotrypsin proteolysis; higher = more stable
observed_property: folding stability dG unfold (kcal/mol)

> print(dat)
                          construct.sequence  reported
 1  SAGEVELTEDGSLKITETIEVNGLLFKVTVTIDENGNISVSIEKVEVLPPPPPVEIKLEDEEAKKKALKSAG [r5_715_TrROS_Hall]      1.61
 2  SAGGSAGGSAGGGSMESVVLNVPIYEKTPDGSWRLVKELPILVPVDASPEVVEKKRKELSAGGSAGGSAGGS [r10_470_JUSTAS]    -0.822
 3  SAGGMYKARIEVKNPEEVKKKIKELGLEFEIETRPDGSVDIYFPPEYVDKLIKAFPGEKIEIEPIPDESAGG [r13_261_TrMRF]      3.38
 4  SAMETYEYPVTGDSATFTVPVPPDHIAKVTVHYPSGSTDTVVPPGVTTTFTVPSSNATVTITIYPRSALSAG [r14_882_JUSTAS]      1.53
 5  SAGGSAGGSVRIPGGQPNTKVTVTVRLPDGTPVEVEATVNPSGEITLDLPDVSPDLIESIELSSAGGSAGGS [r12_477_JUSTAS]     0.478
 6  SSAEEIARRLAEELNLDRVEVRVERLRLEPAEAPEEVRVVRPAPPPPPVTEEERRRRPEERRRRLSEEELSA [r9_724_TrROS_Hall]    -0.262
 7  SAGGSAGGSAGMVIERPDDKVLVILGYDPEKGKVYVAVYDPKTGEVRFKEFDNLEDEIKDSAGGSAGGSAGG [r17_300_TrMRF]      1.76
 8  SAMIKVVLPGAKLEKVEVFPDKTVKAVFVAKDHLVEIYFDPETGKALIRVYDGEKEYEFVLDVHPDDVISAG [r14_218_TrMRF]       4.8
 9  SAGNSNTRYIVRIKIKKYNPETGKIEEIEIDVPISDDDLNIPVEKIIEALKKAFPNTEIEAEITKVPASAGG [r19_189_TrMRF]      3.88
10  SNYLMIRIKEIDPNNPNKIKIEDIHPMPDNGNVQINIEHPGQEIYVMFNSADDAEEFINTLLKNYGLKPESA [r9_258_TrROS]       1.6
11  SALPLPSSAKVELEWELVGVDPGSKGAKVYYRRTLKVTFPTGSLTVTYLVEYDPETGTFSWSITSVSPESAG [r14_293_TrMRF]      5.65
12  EKKTLTVLIEVPPEKLEEALARALELAKALPPGQKLEIEIVNEDGTVVRVTVTVDENGEIHIDVEVLPRPPS [r1_350_TrROS_Hall]      2.36
13  SAGELKITIAVFRPVEKDENGKEVKVELVEVKTITISKEDLTEEEILKLAEELKKKFPNTVILVTIEPSAGG [r19_369_TrROS_Hall]      2.93
14  SAMDFPPGSTATIKVEVKNPDNTKTETYEIEVPVDPETGKAITLEDLKEALEKLGVNPENVKIVDIKVGSAG [r14_93_TrMRF]      2.25
15  SAGGSAGGSKKKTVEEILKELKKKKNKIIKIKYKDGSTYYINIKTGKIIKLKNIKNVKIEILPSAGGSAGGS [r20_44_TrROS_Hall]      4.44
16  SSSGTDPLTVRVTVTLTDPSTGKETLLEYEVEVPPGTPVEVELPDVPPSASVTVEVYDPGGVRIGTRTLPSA [r9_478_JUSTAS]      1.78
17  SMKTVVIKIRKKDGKVTLEEIREAIKALLPPGAKVKLTEEELEKLVEELEKKTGKEITADDLVIVVEVEPSA [r9_197_TrROS_Hall]      2.59
18  SASLVPTEREFELPGGERLRVTTPLDPNSDTPTVTVEKFTEAPDGTVTSTTTTVPPSEVAAVLEALGLRSAG [r14_416_JUSTAS]     0.147
19  SAGGSAGGSAGGKTITLDELRENFPPGYQIRDNNGKQHRINANEPIEEGDPIEIVSKDDISAGGSAGGSAGG [r7_507_TrROS]    -0.206
20  SASLANGGLRVDVELEFDPETHEIRVKRLTLYRGDEPVATADATIAVPPAAPPPPPVVVLDPDVPFDNESAG [r14_571_TrMRF]      1.71
21  SAGGSAGGEELAKRLKELFPNAKIVEIKYDKKTKKVTIKVELEPGMSEEQRERLRKLLEELLKKSAGGSAGG [r6_97_TrROS_Hall]      2.85
22  SFHVERDPEDNTIYIHFPPGMDPLELAKSLLKELREQQDDGPIKIHVHYGDWVFEIDIKKGKIEVRPPGESA [r9_224_TrROS]      1.19
23  SAGGMKIVSVEFDEETGEVYVKIEVPTPEELEALKKLPGEVRIVDKETGEVKVIKVKSIEELLELLKKSAGG [r13_604_TrROS_Hall]      2.18
24  SAGGSAGGSAGEVTVPAVVPPDAVPEVVEAVERLGARAEVEWDPETGLYRVNITFDGEVGSAGGSAGGSAGG [r11_1043_TrMRF]     0.901
25  SAGGKGKAVPFEIEFEAPGGKKVKAKITRIDLPDKPIYRVEVEVDGKKITYTATEDEAANLTFTPGGSAGGS [r8_257_TrMRF]      2.21
26  SSISIPGLTEEKAAELAKRLRELFPGAEVKTTTFPEKKVVVVDVTLPVVDADGKLVGTVKLRLVLVVEDDSA [r9_378_TrMRF]      4.55
27  SASSVEKEFDSIEDALKAIKEALAKKVPVKMKMDPETVKELKKAGFPDIDVTKEKLPNGNEYYLLELLFSAG [r14_127_JUSTAS]       1.2
